- TARGET: PTGS1 (Ovis aries, UniProt P05979)
- Sequence (P05979 25-600): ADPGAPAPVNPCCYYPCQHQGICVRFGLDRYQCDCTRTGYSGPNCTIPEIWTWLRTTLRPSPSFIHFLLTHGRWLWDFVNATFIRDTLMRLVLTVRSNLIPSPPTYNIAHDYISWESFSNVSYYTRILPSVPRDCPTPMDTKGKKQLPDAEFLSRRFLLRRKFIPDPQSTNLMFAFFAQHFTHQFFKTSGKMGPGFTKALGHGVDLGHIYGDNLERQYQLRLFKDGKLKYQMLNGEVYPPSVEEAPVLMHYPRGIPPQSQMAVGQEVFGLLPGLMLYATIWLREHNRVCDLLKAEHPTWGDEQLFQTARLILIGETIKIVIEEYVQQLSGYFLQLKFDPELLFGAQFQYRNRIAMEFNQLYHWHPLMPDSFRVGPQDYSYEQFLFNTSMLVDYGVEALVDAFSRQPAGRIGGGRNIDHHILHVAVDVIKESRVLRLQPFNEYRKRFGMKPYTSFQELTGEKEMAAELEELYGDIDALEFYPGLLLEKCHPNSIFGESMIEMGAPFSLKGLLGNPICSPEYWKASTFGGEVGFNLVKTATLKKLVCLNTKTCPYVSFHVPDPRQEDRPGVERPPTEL
- EXPERIMENT_SUMMARY: PTGS1 inhibition assay (ligand-binding assay, manufacturer's instructions)
- Assay type: biochemical
- TEST_CONTEXT: Bliss method, three independent determinations, read-out: IC50 (μM): mean ± SD
READOUT_NAME: IC50 (µM)
Lab book: enter the figure in µM, no units written.

Notebook: O=c1c(O[C@@H]2O[C@H](CO)[C@@H](O)[C@H](O)[C@H]2O)c(-c2ccc(O)cc2)oc2cc(O)cc(O)c12 [Kaempferol-3-glucoside] , IC50 read as 74

---

- TARGET: PIM1 (Homo sapiens, UniProt P11309)
- Sequence (P11309 whole entry): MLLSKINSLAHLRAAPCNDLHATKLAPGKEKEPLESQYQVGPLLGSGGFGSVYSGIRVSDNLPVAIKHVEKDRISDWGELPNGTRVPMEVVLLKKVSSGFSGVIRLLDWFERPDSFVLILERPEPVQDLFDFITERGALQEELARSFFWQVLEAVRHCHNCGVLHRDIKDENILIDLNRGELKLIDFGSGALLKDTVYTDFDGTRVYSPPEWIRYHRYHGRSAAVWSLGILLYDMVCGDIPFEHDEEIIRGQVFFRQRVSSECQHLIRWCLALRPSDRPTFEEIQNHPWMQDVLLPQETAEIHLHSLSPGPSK
- EXPERIMENT_SUMMARY: PIM1 inhibition assay (ligand-binding assay, manufacturer's instructions)
- Format: biochemical
- TEST_CONTEXT: Bliss method, three independent determinations, read-out: IC50 (μM): mean ± SD
READOUT_NAME: IC50 (µM)
Lab book: enter the figure in µM, no units written.

{"columns": ["SUBSTANCE_SMILES", "IC50 [µM]"],
 "data": [
  ["O=c1c(O[C@@H]2O[C@H](CO)[C@@H](O)[C@H](O)[C@H]2O)c(-c2ccc(O)cc2)oc2cc(O)cc(O)c12", 62]
]}

Notebook: C[C@@H]1O[C@@H](OC[C@H]2O[C@@H](Oc3c(-c4ccc(O)c(O)c4)oc4cc(O)cc(O)c4c3=O)[C@H](O)[C@@H](O)[C@@H]2O)[C@H](O)[C@H](O)[C@H]1O , IC50 read as 57
